Origin of the recorded values: PubChem BioAssay AID1259408

# Tested on: GENE-TOX genotoxicity assays, various organisms and cells
# METHOD: GENE-TOX mutagenicity studies
# STUDY_CONDITIONS: Species/Cell Type: Nonhuman; Assay Type: In vivo carcinogenicity studies; Assay Code: CCG+; Evaluation Type: Evaluation A (Pre-1980)
Calls of active or inactive are those of the source. No rule for the calls is given here.
TEST_READOUT: call

>>> val("NC(=O)/C(=C\\c1ccc([N+](=O)[O-])o1)c1ccco1")
"active; positive"
>>> val("Cc1ccc2cc3c(ccc4ccccc43)c3c2c1CC3")
"active; positive"
>>> val("CCOS(C)(=O)=O")
"active; positive"
>>> val("Cc1cc(-c2ccc(N/N=C3/C(=O)c4c(N)cc(S(=O)(=O)O)cc4C=C3S(=O)(=O)O)c(C)c2)ccc1N/N=C1/C(=O)c2c(N)cc(S(=O)(=O)O)cc2C=C1S(=O)(=O)O")
"active; positive"
>>> val("Nc1ccc(Cl)cc1N")
"active; positive"
>>> val("BrCCBr")
"active; positive"
>>> val("O=NN1CCN(N=O)CC1")
"active; positive"
>>> val("O=NN1CCOCC1")
"active; positive"
>>> val("[O]=[Cd]")
"active; positive"
>>> val("NC(N)=S")
"active; positive"
>>> val("ClCC(Br)CBr (stereo unspecified)")
"active; positive"
>>> val("CCSCCC(N)C(=O)O (stereo unspecified)")
"active; positive"
>>> val("Nc1ccc(-c2ccc(N)cc2)cc1")
"active; positive"
>>> val("COc1ccc(C)cc1N")
"active; positive"
>>> val("COS(C)(=O)=O")
"active; positive"
>>> val("C1COCCO1")
"active; positive"
>>> val("Cc1cc2ccccc2c2ccc3ccccc3c12")
"active; positive"
>>> val("C#C[C@]1(O)CC[C@H]2[C@@H]3CCc4cc(O)ccc4[C@H]3CC[C@@]21C")
"active; positive"
>>> val("Nc1ccc(Sc2ccc(N)cc2)cc1")
"active; positive"
>>> val("O=P1(N(CCCl)CCCl)NCCCO1 (stereo unspecified)")
"active; positive"
>>> val("c1ccc(N=Nc2ccccc2)cc1")
"active; positive"
>>> val("CCCCN(CCCC)N=O")
"active; positive"
>>> val("CN(C)P(=O)(N(C)C)N(C)C")
"active; positive"
>>> val("CN(N=O)C(=O)N[C@@H](C=O)[C@@H](O)[C@H](O)[C@H](O)CO")
"active; positive"
>>> val("CN(C)N")
"active; positive"
>>> val("Cc1cc(Cc2ccc(N)c(C)c2)ccc1N")
"active; positive"
>>> val("O=[N+]([O-])c1ccc(/C=C/c2cnc(N(CO)CO)nn2)o1")
"active; positive"
>>> val("CCOC(=O)N(C)N=O")
"active; positive"
>>> val("Cc1c2ccccc2cc2c1ccc1ccccc12")
"active; positive"
>>> val("[Be]")
"active; positive"
>>> val("COc1cccc2c1C(=O)c1c(O)c3c(c(O)c1C2=O)C[C@@](O)(C(C)=O)C[C@@H]3O[C@H]1C[C@H](N)[C@H](O)[C@H](C)O1")
"active; positive"

* * *

# System: GENE-TOX genotoxicity assays, various organisms and cells
# METHOD: GENE-TOX mutagenicity studies
# STUDY_CONDITIONS: Species/Cell Type: Bacillus subtilis (H17 vs M45); Assay Type: Rec-assay, spot test, DNA effects (bacterial DNA repair); Assay Code: REWT; Evaluation Type: Evaluation A (Pre-1980)
TEST_READOUT: mutagenic call

>>> val("Nc1c(N=Nc2ccc([N+](=O)[O-])cc2)c(S(=O)(=O)O)cc2cc(S(=O)(=O)O)c(N=Nc3ccccc3)c(O)c12")
"no conclusion"
>>> val("Cc1c(C2(c3cc(C(C)C)c(O)c(Br)c3C)OS(=O)(=O)c3ccccc32)cc(C(C)C)c(O)c1Br")
"no conclusion"
>>> val("O=[N+]([O-])c1cc([N+](=O)[O-])c2ccc(S(=O)(=O)O)cc2c1O")
"no conclusion"
>>> val("O=C(O)c1c(Cl)c(Cl)c(Cl)c(Cl)c1-c1c2cc(Br)c(=O)c(Br)c-2oc2c(Br)c(O)c(Br)cc12")
"no conclusion"
>>> val("O=Nc1c([O-])ccc2cc(S(=O)(=O)[O-])ccc12.O=Nc1c([O-])ccc2cc(S(=O)(=O)[O-])ccc12.O=Nc1c([O-])ccc2cc(S(=O)(=O)[O-])ccc12.[Fe+3].[Na+].[Na+].[Na+]")
"no conclusion"
>>> val("CCN(Cc1ccccc1)c1ccc(C(=C2C=CC(=[N+](CC)Cc3ccccc3)C=C2)c2ccc(S(=O)(=O)O)cc2S(=O)(=O)[O-])cc1")
"no conclusion"
>>> val("O=S(=O)(O)c1cc(S(=O)(=O)O)c2c(N=Nc3ccccc3)c(O)ccc2c1")
"no conclusion"
>>> val("O=C1c2ccccc2C(=O)C1c1ccc2cc(S(=O)(=O)O)cc(S(=O)(=O)O)c2n1")
"no conclusion"
>>> val("CCN(Cc1cccc(S(=O)(=O)O)c1)c1ccc(C(=C2C=CC(=[N+](CC)Cc3cccc(S(=O)(=O)[O-])c3)C=C2)c2ccc(S(=O)(=O)O)cc2)cc1")
"no conclusion"
>>> val("COc1cc2c(c3oc(=O)c4c(c13)CCC4=O)[C@@H]1CCO[C@@H]1O2")
"no conclusion"
>>> val("CCOP(=S)(OCC)SCSP(=S)(OCC)OCC")
"no conclusion"
>>> val("O")
"no conclusion"
>>> val("COc1cc(NC(=O)c2ccccc2)c(OC)cc1[N+]#N")
"no conclusion"
>>> val("CNC(=O)/C=C(\\C)OP(=O)(OC)OC")
"no conclusion"
>>> val("Nc1c(Cl)cc([N+](=O)[O-])cc1Cl")
"no conclusion"
>>> val("O=C1c2ccccc2C(=O)c2c1ccc(O)c2O")
"no conclusion"
>>> val("Nc1ccc(N=Nc2cccc(N=Nc3ccc(N)cc3N)c2)c(N)c1")
"no conclusion"
>>> val("O=S(=O)(O)c1ccc(N=Nc2ccc(O)c3ccccc23)cc1")
"no conclusion"
>>> val("COP(=O)(OC)O/C(C)=C/C(=O)OC(C)c1ccccc1 (stereo not given)")
"no conclusion"
>>> val("Cc1cc2nc3cc(C)c(N)cc3[n+](-c3ccccc3)c2cc1N")
"no conclusion"
